Measured values drawn from patent US10562947B2 for this set.

Target: Lck(h) activated (Homo sapiens, UniProt P06239)
Sequence (P06239 whole entry): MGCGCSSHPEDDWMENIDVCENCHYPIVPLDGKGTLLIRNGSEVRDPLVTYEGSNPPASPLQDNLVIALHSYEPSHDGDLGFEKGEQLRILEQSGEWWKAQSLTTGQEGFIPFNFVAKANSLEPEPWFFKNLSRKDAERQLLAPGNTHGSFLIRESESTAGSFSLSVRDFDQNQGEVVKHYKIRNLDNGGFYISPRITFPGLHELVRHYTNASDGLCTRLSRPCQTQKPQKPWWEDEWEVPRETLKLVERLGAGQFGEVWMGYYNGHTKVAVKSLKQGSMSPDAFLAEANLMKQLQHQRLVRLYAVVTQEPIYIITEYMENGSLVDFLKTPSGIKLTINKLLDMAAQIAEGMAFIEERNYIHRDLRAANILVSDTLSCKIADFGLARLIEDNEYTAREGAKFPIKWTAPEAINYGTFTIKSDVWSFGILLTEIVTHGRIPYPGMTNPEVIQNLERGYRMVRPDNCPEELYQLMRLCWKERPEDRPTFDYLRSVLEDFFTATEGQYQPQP
Experiment: Kinase Profiling Assay
Assay type: biochemical
Settings: 100 μM peptide
Assay metric: Lck(h) activated % activity (%)

Seq string	Study system	Assay metric	Recorded measurement
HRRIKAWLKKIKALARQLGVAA (Mammalian) [MMI-0500]	Lck(h) activated (Homo sapiens, UniProt P06239)	Lck(h) activated % activity	76
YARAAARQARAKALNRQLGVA (Mammalian) [MMI-0200]	Lck(h) activated (Homo sapiens, UniProt P06239)	Lck(h) activated % activity	90
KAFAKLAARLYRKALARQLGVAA [MMI-0400]	Lck(h) activated (Homo sapiens, UniProt P06239)	Lck(h) activated % activity	216
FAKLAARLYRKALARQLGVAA [MMI-0300]	Lck(h) activated (Homo sapiens, UniProt P06239)	Lck(h) activated % activity	243
